assay.notes: in vivo
Set-up: species or system Sprague-Dawley rats
experimental.setup: female, Sprague-Dawley, rat, inhaled or intranasal
recorded.endpoint: AUC(0-t) (ng·h/mL)

| molecule | recorded.endpoint | quantitative.result |
| --- | --- | --- |
| N[C@@H](Cc1cc(I)c(Oc2ccc(O)c(I)c2)c(I)c1)C(=O)O [T3, triiodothyronine] | AUC(0-t) | 64.1 |

---

assay.notes: in vivo
Set-up: species or system Sprague-Dawley rats
experimental.setup: female, Sprague-Dawley, rat, inhaled or intranasal
recorded.endpoint: Cmax (ng/mL)

| line.notation | quantitative.result |
| --- | --- |
| N[C@@H](Cc1cc(I)c(Oc2ccc(O)c(I)c2)c(I)c1)C(=O)O | 16.5 |

---

assay.notes: in vivo
Parameters: species or system Sprague-Dawley rats
experimental.setup: male, Sprague-Dawley, rat, inhaled or intranasal

| line.notation | Cmax, ng/mL |
| --- | --- |
| N[C@@H](Cc1cc(I)c(Oc2ccc(O)c(I)c2)c(I)c1)C(=O)O | 6.6 |
